Values were extracted from patent US20230219964A1.

Entries annotated with measured MIC
test system: vancomycin-resistant enterococci (VRE) cells, VRE 1; assay: MIC in vitro broth micro-dilution assay, VRE 1; assay type: cell-based; details: Enterococcus, VRE; lowest concentration to fully inhibit visible growth (OD600); clinical isolate, ampicillin, ciprofloxacin and vancomycin resistant; read-out: in vitro susceptibility (MIC) VRE 1
measured-parameter: MIC

{"columns": ["smiles-repr", "test-system", "endpoint-value"],
 "data": [
  ["C=C[C@]1(C)C[C@@H](OC(=O)Cn2cc(-c3ccc(CO)cc3)nn2)[C@]2(C)[C@H](C)CC[C@]3(CCC(=O)[C@H]32)[C@@H](C)[C@@H]1O", "vancomycin-resistant enterococci (VRE) cells, VRE 1", "1 µg/mL"],
  ["C=C[C@]1(C)C[C@@H](OC(=O)Cn2cc(-c3ccc([C@@H](C)n4cnc5c(N6CCNCC6)ncnc54)cc3)nn2)[C@]2(C)[C@H](C)CC[C@]3(CCC(=O)[C@H]32)[C@@H](C)[C@@H]1O", "vancomycin-resistant enterococci (VRE) cells, VRE 1", "0.25 µg/mL"],
  ["C=C[C@]1(C)C[C@@H](OC(=O)Cn2cc(-c3cccc(Nc4ncnc5[nH]cnc45)c3)nn2)[C@]2(C)[C@H](C)CC[C@]3(CCC(=O)[C@H]32)[C@@H](C)[C@@H]1O", "vancomycin-resistant enterococci (VRE) cells, VRE 1", "0.25 µg/mL"],
  ["C=C[C@]1(C)C[C@@H](OC(=O)Cn2cc(-c3ccc(Cn4cc(C)c(=O)[nH]c4=O)cc3)nn2)[C@]2(C)[C@H](C)CC[C@]3(CCC(=O)[C@H]32)[C@@H](C)[C@@H]1O", "vancomycin-resistant enterococci (VRE) cells, VRE 1", "0.5 µg/mL"],
  ["C=C[C@]1(C)C[C@@H](OC(=O)Cn2cc(-c3ccc(Cn4cnc5c(N)ncnc54)c(OC)c3)nn2)[C@]2(C)[C@H](C)CC[C@]3(CCC(=O)[C@H]32)[C@@H](C)[C@@H]1O", "vancomycin-resistant enterococci (VRE) cells, VRE 1", "0.12 µg/mL"]
]}
